Each recorded value in this set is attributed to patent US20220411517A1.

The entries below are paired with their reported IC50, IL-8 release, HDFa stimulated with IL-36α.
assayed system: human IL-1RAcP on cells (human, UniProt Q9NPH3 21-570)
procedure summary: cell-based or functional assay
I only need the number, in pM, no unit after it.

R001031 (CAN04) (antibody, human IgG1, kappa, V domains shown, Variable domains of prior art CAN04 on human IgG1 kappa constant regions with AEASS) VH: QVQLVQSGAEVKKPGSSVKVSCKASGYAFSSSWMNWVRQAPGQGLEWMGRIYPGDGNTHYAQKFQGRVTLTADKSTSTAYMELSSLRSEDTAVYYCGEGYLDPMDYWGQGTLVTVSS VL: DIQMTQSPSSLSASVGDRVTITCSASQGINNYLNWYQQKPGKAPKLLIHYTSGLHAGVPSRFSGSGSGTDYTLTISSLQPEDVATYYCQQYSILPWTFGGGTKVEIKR; 19
R001032 (1A05) (antibody, human IgG1, kappa, V domains shown, Rabbit variable domains of prior art 1A05 on human IgG1 kappa constant regions with AEASS; also called P013.S.01.B.A05) VH: LEQSGGGAEGGLVKPGGSLELCCKASGFSLSTSYWRCWVRQAPGKGLEWIGCIYAGSGDVTYYANWVNGRFTLSRDIDQSTGCLQLNSLTAADTAMYYCASGVGFGYFNLWGQGTLVTVSS VL: ALVMTQTPSPVSAAVGGTVTINCQASEDIYSNLAWFQQKPGQPPKLLIYDASTLASGVPSRFSGSGSGTEFTLTISGLQSDDAATYYCLGVYTHISADNAFGGGTEVVVKR; 50

Now for the binder whose IC50, IL-8 release, HDFa stimulated with IL-36α we want.
Challenge: Suppose we examine the binder Y024084_h_IgG1f_AEASS (antibody, V domains shown, also called Morphosys 24084; Mor Y024084) VH: QVQLVQSGAEVKKPGASVKVSCKASGYTFTSYYMHWVRQAPGQGLEWMGIINPSGGSTSYAQKFQGRVTMTRDTSTSTVYMELSSLRSEDTAVYYCARGFVTSGIDYWGQGTLVTVSS VL: QSVLTQPPSVSAAPGQKVTISCSGSSSNIGNNYVSWYQQLPGTAPKLLIYDNNKRPSGIPDRFSGSKSGTSATLGITGLQTEDEADYYCQTWTYTGRLWIVFGGGTKLTVLG ; what IC50, IL-8 release, HDFa stimulated with IL-36α value has been reported?
Response given: 25
